Hey, just so you know, these numbers are from patent US20240000834A1.

Hi there, I'd appreciate the recorded Emax relative to WT for every entry that follows.
Target: KRAS-G12V antigen peptide (Homo sapiens, UniProt P01116, G12V)
Test: Emax and EC50 (functional avidity) of TCR MHC-II binding region mutants, Jurkat-NFAT-Luc with peptide-loaded SW620-DPB cells
Type: cell-based
Parameters: expressed in transfected cells; host or cells: SW620-DPB cells (SW620 expressing HLA-DPB1*03:01); the peptide is synthetic
Conditions: G12V antigen peptide 10 μg/ml, 10-fold dilution, 5 concentrations
Numbers only, in %.

α49K-G (TCR) TCR alpha: AQSVAQPEDQVNVAEGNPLTVKCTYSVSGNPYLFWYVQYPNRGLQFLLGYITGDNLVKGSYGFEAEFNKSQTSFHLKKPSALVSDSALYFCAVRDGRGGGNKLTFGTGTQLKVEL TCR beta: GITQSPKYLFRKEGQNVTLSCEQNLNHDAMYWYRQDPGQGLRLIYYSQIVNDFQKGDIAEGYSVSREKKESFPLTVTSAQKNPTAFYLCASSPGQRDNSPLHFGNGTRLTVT ... 104
β56Q-A (TCR) TCR alpha: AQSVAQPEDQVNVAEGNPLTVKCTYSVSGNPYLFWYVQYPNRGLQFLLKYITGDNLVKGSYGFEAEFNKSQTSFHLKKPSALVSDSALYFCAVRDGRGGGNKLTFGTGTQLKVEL TCR beta: GITQSPKYLFRKEGQNVTLSCEQNLNHDAMYWYRQDPGQGLRLIYYSQIVNDFAKGDIAEGYSVSREKKESFPLTVTSAQKNPTAFYLCASSPGQRDNSPLHFGNGTRLTVT ... 103

Problem: Sample β48Y-F: B13.14.1 TCR Vβ point mutant (protein) TCR alpha: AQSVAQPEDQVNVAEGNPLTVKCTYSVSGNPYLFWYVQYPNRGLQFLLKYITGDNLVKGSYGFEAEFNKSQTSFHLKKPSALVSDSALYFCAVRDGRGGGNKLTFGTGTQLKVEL TCR beta: GITQSPKYLFRKEGQNVTLSCEQNLNHDAMYWYRQDPGQGLRLIYFSQIVNDFQKGDIAEGYSVSREKKESFPLTVTSAQKNPTAFYLCASSPGQRDNSPLHFGNGTRLTVT — what was its Emax relative to WT?
Solution: 180
